Target: T1, RHPN1, Q8TCX5
T1 sequence (Q8TCX5 508-602, limits assumed, looked up): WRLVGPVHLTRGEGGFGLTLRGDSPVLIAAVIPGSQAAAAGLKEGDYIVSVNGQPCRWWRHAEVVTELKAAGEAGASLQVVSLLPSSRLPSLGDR
Assay: holdup assay
Design: key: below the threshold = too weak to quantify, mostly under pKd 3.1 to 4
Conditions: plain residues with an end cap or a label only (N-terminal biotin on a linker: ttds)

Binder | pKd
LDSQIQETSI [MAP4, P27816] | 4.94
LCALPKVTTV [AGMAT, Q9BSE5] | 4.24
DPRNTQTSQI [ABRAXAS2, Q15018] | 4.43
PKRPFVESNV [TANC2, Q9HCD6] | 4.09
